I'd be grateful if you could share measured pKi for these entries.
- Measured On: Mu-type opioid receptor (Mus musculus)
- Sequence (P42866 whole entry): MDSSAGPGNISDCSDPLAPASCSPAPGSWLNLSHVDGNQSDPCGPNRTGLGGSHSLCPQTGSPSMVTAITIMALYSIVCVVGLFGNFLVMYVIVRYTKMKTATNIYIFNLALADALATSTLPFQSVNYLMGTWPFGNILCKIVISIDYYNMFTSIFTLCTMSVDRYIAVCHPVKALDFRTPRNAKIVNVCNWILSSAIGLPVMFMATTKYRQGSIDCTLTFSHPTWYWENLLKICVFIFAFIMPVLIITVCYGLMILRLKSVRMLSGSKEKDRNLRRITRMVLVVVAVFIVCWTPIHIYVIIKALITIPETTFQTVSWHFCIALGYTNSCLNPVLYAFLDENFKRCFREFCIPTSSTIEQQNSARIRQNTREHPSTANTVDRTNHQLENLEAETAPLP
- Method Notes: Displacement of [3H]DAMGO from mu opioid receptor in mouse whole brain without cerebellum
Keep it numeric: pKi is minus log10 of the concentration in mol/L.

Request: Using the record for CN1CC[C@]23Cc4nc5cc(O)ccc5cc4C[C@@]2(O)[C@H]1Cc1ccc(O)cc13 , report its pKi.
Result: 7.69

Request: Using the record for CN(C)c1cccc2cc3c(nc12)C[C@]12CCN(C)[C@H](Cc4ccc(O)cc41)[C@]2(O)C3 , report its pKi.
Result: 7.65

Request: Using the record for CN1CC[C@]23Cc4nc5ccc([N+](=O)[O-])cc5cc4C[C@@]2(O)[C@H]1Cc1ccc(O)cc13 , report its pKi.
Result: 7.61

Request: Using the record for CN1CC[C@]23Cc4nc5c([N+](=O)[O-])cccc5cc4C[C@@]2(O)[C@H]1Cc1ccc(O)cc13 , report its pKi.
Result: 7.56

Request: Using the record for CN1CC[C@]23Cc4nc5c(F)cccc5cc4C[C@@]2(O)[C@H]1Cc1ccc(O)cc13 , report its pKi.
Result: 7.92

Request: Using the record for CN1CC[C@]23Cc4nc5c(O)cccc5cc4C[C@@]2(O)[C@H]1Cc1ccc(O)cc13 , report its pKi.
Result: 7.35

Request: Using the record for CN1CC[C@]23Cc4nc5c(Cl)cccc5cc4C[C@@]2(O)[C@H]1Cc1ccc(O)cc13 , report its pKi.
Result: 7.46

Request: Using the record for CN1CC[C@]23Cc4nc5cc(C(F)(F)F)ccc5cc4C[C@@]2(O)[C@H]1Cc1ccc(O)cc13 , report its pKi.
Result: 6.82
